# protocolText: NCI Yeast Anticancer Drug Screen. Data for the bub3 strain (AID 167)
# reportedConditions: S. cerevisiae bub3 mutant strain, at 5.0 µM (retest, dose inferred, filed as 0.5), stronger effect = higher value
This is part of a sample that, as a whole, favours compounds with a hit. Of some 79,000 tested, about 15% had one in any assay.
readoutKind: growth inhibition (%)

>  <compound>
CCOc1ccc2nc(C)cc(C)c2c1

>  <unitName>
%

>  <reading>
-8

$$$$
>  <compound>
Oc1cccnc1CN1CCCCC1

>  <unitName>
%

>  <reading>
-21

$$$$
>  <compound>
COC(=O)c1nnn(-c2ccc(Cl)cc2Cl)c1C(=O)c1ccc(Cl)c(Cl)c1

>  <unitName>
%

>  <reading>
17

$$$$
>  <compound>
O=S1(=O)C(Br)=Cc2ccccc21

>  <unitName>
%

>  <reading>
13

$$$$
>  <compound>
NC(=O)N/N=C(/Cc1nc2ccccc2nc1C/C(=N/NC(N)=O)c1cccc2ccccc12)c1cccc2ccccc12

>  <unitName>
%

>  <reading>
-8

$$$$
>  <compound>
COc1ccc(Cc2nc3ccc(Cl)cc3[nH]2)cc1

>  <unitName>
%

>  <reading>
1

$$$$
>  <compound>
O=C(/C=C/c1ccc(O)cc1)c1cc(Cl)ccc1O

>  <unitName>
%

>  <reading>
4

$$$$
>  <compound>
COc1ccc(C2(O)c3ccccc3C(=O)C2c2ccccn2)cc1 (centres undefined)

>  <unitName>
%

>  <reading>
99

$$$$
>  <compound>
Nc1nc2ccccc2cc1C(=O)O

>  <unitName>
%

>  <reading>
-69

$$$$
>  <compound>
O=Cc1cc2c(s1)C(=O)c1sccc1C2=O

>  <unitName>
%

>  <reading>
94

$$$$
>  <compound>
CCC(CC)C(=O)O.[Ag]

>  <unitName>
%

>  <reading>
100

$$$$
>  <compound>
CCCCCCCCCCCOc1cccc(N2C(N)=NC(N)=NC2(C)C)c1

>  <unitName>
%

>  <reading>
98

$$$$
>  <compound>
CC(C)(C)N1OC2(c3ccccc3)OC3N(C(C)(C)C)OC4(c5ccccc5)OC1C2(c1ccccc1)C34c1ccccc1 (centres undefined)

>  <unitName>
%

>  <reading>
1

$$$$
>  <compound>
Cc1cc(Br)c(P(=O)(O)O)cc1[N+](=O)[O-]

>  <unitName>
%

>  <reading>
3

$$$$
>  <compound>
COc1ccc(-c2c(C#N)cc(OC)c(OC)c2OC)c(C=O)c1

>  <unitName>
%

>  <reading>
-3

$$$$
>  <compound>
CCOC(=O)C(NC(=O)c1ccccc1)[CH](c1ccc(OC)cc1)[Sn]([c]1ccccc1)([c]1ccccc1)[c]1ccccc1 (centres undefined)

>  <unitName>
%

>  <reading>
44

$$$$
>  <compound>
COc1ccccc1C(=O)c1ccc2ccccc2c1

>  <unitName>
%

>  <reading>
3

$$$$
>  <compound>
COc1ccc(NS(=O)(=O)c2ccc(N=Cc3c4ccccc4nc4cc(Cl)ccc34)cc2)nn1

>  <unitName>
%

>  <reading>
22

$$$$
>  <compound>
CO/N=C/c1ccc([N+](=O)[O-])s1

>  <unitName>
%

>  <reading>
-61

$$$$
>  <compound>
O=C1C(c2ccccc2)=[N+]([O-])c2cc([N+](=O)[O-])c(/C(Cl)=C/c3ccccc3)cc21

>  <unitName>
%

>  <reading>
7

$$$$
>  <compound>
COC(=O)C1(C)CCCC2(C)C3CCC4CC3(C=C4CO)CCC12 (centres undefined)

>  <unitName>
%

>  <reading>
24

$$$$
>  <compound>
Cc1cc(C(O)(c2cc(C)c(O)c(C(=O)O)c2)c2cc(C)c(O)c(C(=O)O)c2)cc(C(=O)O)c1O

>  <unitName>
%

>  <reading>
-43

$$$$
>  <compound>
c1ccc(-c2c3ccccc3cc3ccc4ccccc4c23)nc1

>  <unitName>
%

>  <reading>
3

$$$$
>  <compound>
Cc1ccc2ccc3ccc(C)nc3c2n1

>  <unitName>
%

>  <reading>
96

$$$$
>  <compound>
CCN(CC)CC(O)CNc1cc(C)nc(/N=C(\N)Nc2ccc(Cl)c(Cl)c2)n1 (centres undefined)

>  <unitName>
%

>  <reading>
-2

$$$$
>  <compound>
CN(C)c1ccc2c(NCCCCCCNc3ccnc4cc(N(C)C)ccc34)ccnc2c1

>  <unitName>
%

>  <reading>
-2

$$$$
>  <compound>
Nc1ccc(C(=O)/C=C/c2ccccc2O)cc1

>  <unitName>
%

>  <reading>
-19

$$$$
>  <compound>
Cc1cc(=O)[nH]c(NN2C(Cl)C(=O)C2c2ccc(O)cc2)n1 (centres undefined)

>  <unitName>
%

>  <reading>
7

$$$$
>  <compound>
C=CCOc1ccc(C2(c3ccc(OCC=C)cc3)C(=O)Nc3ccccc32)cc1

>  <unitName>
%

>  <reading>
6

$$$$
>  <compound>
CCCCCCCCCCCCCCCCCCOC(=O)C(N)CCCCN (centres undefined)

>  <unitName>
%

>  <reading>
-7

$$$$
>  <compound>
CCOC(=O)/C(=C\n1c(=O)sc2ccccc21)C(=O)c1ccccc1

>  <unitName>
%

>  <reading>
21

$$$$
>  <compound>
CC(C)c1ccc2c(c1)CCC1C(C)(CNC(=O)S)CCCC21C.[Zn+2] (centres undefined)

>  <unitName>
%

>  <reading>
6

$$$$
>  <compound>
CCN(CC)CCNc1ccc2ncn3c4c(OC)ccc(=O)c4c(O)c1c23

>  <unitName>
%

>  <reading>
9

$$$$
>  <compound>
O=C(/C=N/O)c1c(-c2ccccc2)[nH]c(-c2ccccc2)c1-c1ccccc1

>  <unitName>
%

>  <reading>
11

$$$$
>  <compound>
CC(c1ccccc1)C(C(=O)O)(c1ccccc1)c1ccccc1 (centres undefined)

>  <unitName>
%

>  <reading>
76

$$$$
>  <compound>
O=C(N/N=C/c1ccc2c(c1)OCO2)c1ccc([N+](=O)[O-])cc1

>  <unitName>
%

>  <reading>
0

$$$$
>  <compound>
O=[N+]([O-])c1ccc2c(c1)/C(=N/O)c1ccccc1-2

>  <unitName>
%

>  <reading>
8

$$$$
>  <compound>
COC1/C=C\C=C(/C)C(=O)Nc2cc3nc4cc(Br)ccc4oc-3c(c2=O)CC(C)CC(OC)C(O)C(C)/C=C(\C)C1OC(N)=O (centres undefined)

>  <unitName>
%

>  <reading>
79

$$$$
>  <compound>
O=C(NCCc1c(-c2ccccc2)[nH]c2ccccc12)C(F)(F)C(F)(F)F

>  <unitName>
%

>  <reading>
5

$$$$
>  <compound>
Cc1[nH]c2ccccc2c1C1=CC2(C)Nc3ccccc3C2C(C)(C)C1 (centres undefined)

>  <unitName>
%

>  <reading>
10

$$$$
>  <compound>
CCCC(C)(O)C(C)CC (centres undefined)

>  <unitName>
%

>  <reading>
-3

$$$$
>  <compound>
NCc1ccccc1-c1c2nc(c(-c3ccccc3CN)c3ccc([nH]3)c(-c3ccccc3CN)c3nc(c(-c4ccccc4CN)c4ccc1[nH]4)C=C3)C=C2

>  <unitName>
%

>  <reading>
37

$$$$
>  <compound>
NCCOB(c1ccccc1)c1ccccc1

>  <unitName>
%

>  <reading>
1

$$$$
>  <compound>
N#CS/C=C/SC#N

>  <unitName>
%

>  <reading>
100

$$$$
